- measurement.description: qHTS Primary assay for Inhibitors of Plasmodium falciparum Dd2 growth in vitro; note: nearly all actives have a fitted effect of over 65% in size
- assay.context: P. falciparum Dd2 growth, SYBR Green, 72 h; series mostly up to 28.9 µM
Out of some 120,000 compounds screened, about 5,300 (4.4%) were called active. Not shown: some 22% with an inconclusive outcome. Calls come from the whole dose curve; as a rule, active = well fitted inhibition curve with a large enough effect; inconclusive = small, poorly fitted or top-dose-only effect; inactive = no such curve, though single readings can be large or run the other way. The sample as a whole holds a higher share of actives than the screen did.
In this exercise, the only acceptable responses are active, inactive

compound: COc1ccc2cc(C(=O)N3C[C@@H](Oc4ccccc4)C[C@H]3C(=O)N3CCOCC3)[nH]c2c1
label: inactive
//
compound: CCn1cc(-c2ccc(OC)cc2)cc1C(=O)N1CCC(C)CC1
label: inactive
//
compound: CCOc1ccc(-c2n[nH]c3c2C(c2ccccc2OC)N(c2ccc(Br)cc2)C3=O)cc1 (stereo unspecified)
label: active

# fetch the recorded call for `O=C(Cn1ccn2nc(-c3ccccc3)c(CO)c2c1=O)Nc1ccc2c(c1)CCC2` here inactive

// repeat for `Cc1nc(-c2c3n(c(=O)n(Cc4ccc(Br)cc4)c2=O)CCCCC3)no1` and report inactive

// repeat for COc1ccc(C2Sc3ccccc3NC3=C2C(=O)c2ccccc23)c(OC)c1OC (stereo unspecified) and report active

// repeat for `OCc1cccc(-c2cc(C3=CCOCC3)c3cncn3c2)c1` and report inactive

// repeat for `CN1Cc2c(cc(N3CCOCC3)nc2-c2cccc(F)c2)C1=O` and report inactive

// repeat for `COc1cccc(CN2CCc3c(cc(C(=O)NCCN4CCCCC4)n3C)C2)c1` and report active

// repeat for `COc1cccc(-c2nc(N3CCOCC3)cc3c2CN(CC2CC2)C3=O)c1` and report active

// repeat for `Cn1ccnc1CNC(=O)C[C@@H]1C[C@H]2O[C@H](CNC(=O)NCc3ccccc3)[C@@H](O)[C@H]2O1` and report inactive

// repeat for `O=C(NCCc1ccc(Cl)cc1)c1ccc2nc(CCc3ccccc3)oc2c1` and report inactive

// repeat for `Cn1cc(CN2CCCN(C(=O)c3ccco3)CC2)c(-c2ccc(C3CCCCC3)cc2)n1` and report active

// repeat for `Cc1oc2ccn(Cc3cccc(F)c3)c(=O)c2c1C(=O)NCc1cccnc1` and report inactive

// repeat for `CCc1ccc(Nc2nn3c(=O)c4cc5c(cc4nc3s2)OCO5)cc1` and report inactive

// repeat for `Cc1ccccc1Nc1nn2c(=O)c3ccc(C(=O)NCCc4ccc(Cl)cc4)cc3nc2s1` and report active

// repeat for `O=C(N[C@@H]1CCC[C@@H]1C(=O)N1CCN(c2ccccc2F)CC1)c1ccncc1` and report inactive

// repeat for O=C(c1cc(F)ccc1F)N1CCCCCC1c1nnc(-c2ccccc2)o1 (stereo unspecified) and report inactive

// repeat for `Cc1ccccc1CNC(=O)c1ccc(NC(=O)N2CCCCc3ccccc32)cc1` and report inactive

// repeat for `COc1ccc(-c2ccc3c(c2)C(=O)N2CCN(C(=O)CC4(CC(=O)O)CCCC4)C[C@H]2C(=O)N3)cc1` and report inactive

// repeat for CC(C)c1nc(-c2ccc(OC3CCN(C(=O)CCc4nc5ccccc5[nH]4)C3)cc2)no1 (stereo unspecified) and report active

// repeat for `COc1cccc(CN2CCc3nc(SCC(=O)Nc4ccccc4)[nH]c(=O)c3C2)c1` and report inactive

// repeat for `O=C1NCc2ccc(-c3cc4c(ccn4Cc4cccnc4)c(C4=CCOCC4)n3)cc21` and report inactive
